meta.source: patent US20190338026A1

Catalogue of binders with associated GFP+ of LAIR1 reporter cells, Collagen I coated + K562
- targetSystem: T1, LAIR1 on LAIR1 reporter cells (human, UniProt Q6GTX8 22-165, limits assumed); note: test concentration or dose not given here
- T1 chain: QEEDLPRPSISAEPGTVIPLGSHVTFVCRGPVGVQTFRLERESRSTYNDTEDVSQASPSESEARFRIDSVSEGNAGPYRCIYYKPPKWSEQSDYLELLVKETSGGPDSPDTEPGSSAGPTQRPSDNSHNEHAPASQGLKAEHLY
- assayNotes: cell-based or functional assay

Example cases with answers are listed next.
# binder, result
records = [
    ("LA-252 (antibody, V domains shown, Rabbit monoclonal IgG; Called a potential antagonist antibody) VH: EQSVEESGGRLVTPGTPLTLTCTASGFTISDYHMCWVRQAPGKGLEWIGLIRASHSTAYASWANGRFTISRTSTTVDLKITSPTSEDTATYFCARYGGSGIGCNLWGPGTLVTISS VL: ELVLTQTPASVSEPVGGTVTIKCQASQSIDSNLAWYQQKPGQPPKQLIYAVSNLASGVPSRFKGSGSGTEFTLTISDLECADAASYYCECTYYGNSYVGGFGGGTEVEIK", "< 5%"),
    ("LA-219 (antibody, V domains shown, Rabbit monoclonal IgG; Called a potential antagonist antibody) VH: EQSVESGGGLITPGGTLTLTCTASGFTVTRYYMNWVRQAPGKGLEWIGYIYASSKTYYANWAKGRFTISKTSTTVDLKMTSLTAEDTGTYFCARGGVGNSGLNLDLWGPGTLVTISS VL: ELDMTQTPASVSEPVGGTVTIKCQASQSIGSWLAWYQQKPGQPPKLLIYQASRLASGVSSRFGGSGSGTEFTLTISDLECADAATYYCQQAEYSGDVENTFGGGTEVVVK", "< 5%"),
    ("LA-94 (antibody, V domains shown, Rabbit monoclonal IgG; Called an agonist antibody; also called mAb LA-94; agonist Ab LA-94) VH: EQSLEESEGRLVTPGTPLTLTCTASGFSLSGYHMSWVRQAPGKGLEYIGYISERGTSYYANWAKGRFTVSKSSSSTVVLSIISPTAEDTATYFCARYGGGDSAFILWGPGTLVTISS VL: ELVMTQTPASVSGPVGGTVTIKCQASHNIDNSLAWYQQKPGQPPKLLIYKASTLASGVSSRFKGSGSGTEYTLTISDLECADAATYFCQGTIGLNSGCAFGGGTEVEIK", "> 40%"),
]

Now turn to the next binder.
Per the records, this binder ( LA-192 (antibody, V domains shown, Rabbit monoclonal IgG; Called an agonist antibody) VH: EQSLEESGGRLVTPGTPLTLTCTASGFSLSSYYMTWVRQAPGKGLEWIGYMHTGGGVVYASWATGRFTISRTSTTVDLKITSPTTEDTATYFCARSHAGYSTINRLDLWGVGTLVTISS VL: ELDLTQTPSSVSAAVGGTVTISCQSSPSVYTNNLSWFQQKPGQPPKLLIYDASKLESGVPSRFRGSGSGTQFTLTISDVQCDDAATYYCAGAYLSDSDTTFGGGTELEIK ) has GFP+ of LAIR1 reporter cells, Collagen I coated + K562 equal to > 40%
